system: Pseudoperonospora cubensis; assay: Cucumber Downy Mildew (PSPECU), foliar spray, percent disease control; format: in vivo; settings: foliar, read-out: PSPECU percent control

{"smiles text": "FC(F)(F)c1ccc(Oc2ccc(CCNc3ncnc4ncc(Cl)nc34)cc2)nc1", "pest or weed control at 200 µg/mL": "80 to 100%"}
{"smiles text": "COc1cc(C(F)(F)F)cc(Oc2ccc(CCNc3ncnc4nccnc34)cc2F)n1", "pest or weed control at 200 µg/mL": "80 to 100%"}
{"smiles text": "FC(F)(F)c1cccnc1Oc1ccc(OCCNc2ncnc3nccnc23)cc1", "pest or weed control at 200 µg/mL": "80 to 100%"}
{"smiles text": "N#Cc1nccnc1Oc1ccc(CCNc2ncnc3nccnc23)cc1", "pest or weed control at 200 µg/mL": "80 to 100%"}
{"smiles text": "COc1cc(C(F)(F)F)cc(Oc2ccc(CCNc3ncnc4nccnc34)cc2OC)n1", "pest or weed control at 200 µg/mL": "0 to 49%"}
